Measured On: δ2 (Cavia porcellus, UniProt A0A286XTF2)
Sequence (A0A286XTF2 1-366): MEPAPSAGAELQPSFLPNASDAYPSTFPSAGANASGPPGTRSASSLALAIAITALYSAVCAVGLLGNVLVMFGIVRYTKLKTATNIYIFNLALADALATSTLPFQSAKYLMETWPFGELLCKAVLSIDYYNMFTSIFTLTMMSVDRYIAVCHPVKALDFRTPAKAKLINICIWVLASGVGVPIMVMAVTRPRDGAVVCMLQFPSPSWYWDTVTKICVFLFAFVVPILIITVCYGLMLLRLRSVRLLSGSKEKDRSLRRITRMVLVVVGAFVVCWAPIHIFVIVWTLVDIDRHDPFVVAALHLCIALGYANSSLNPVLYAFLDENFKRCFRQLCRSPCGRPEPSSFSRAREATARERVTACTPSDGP
pKi: −log10 of the molar value. Structures can show the parent of a compound that is named as a salt.
// false strictly below 10 in pKi; true otherwise

{"Compound": "NCCCC[C@H](NC(=O)c1cccc2c3c([nH]c12)[C@@H]1Oc2c(O)ccc4c2[C@@]12CCN(CC1CC1)[C@H](C4)[C@]2(O)C3)C(=O)O [Compound 6, hydrochloride]", "Classification": "false"}
{"Compound": "NCCC[C@H](NC(=O)c1cccc2c3c([nH]c12)[C@@H]1Oc2c(O)ccc4c2[C@@]12CCN(CC1CC1)[C@H](C4)[C@]2(O)C3)C(=O)O [Compound 4, hydrochloride]", "Classification": "true"}
{"Compound": "O=C(O)c1cccc2c3c([nH]c12)[C@@H]1Oc2c(O)ccc4c2[C@@]12CCN(CC1CC1)[C@H](C4)[C@]2(O)C3 [Compound 7, hydrochloride]", "Classification": "true"}
{"Compound": "O=C(O)C[C@H](NC(=O)c1cccc2c3c([nH]c12)[C@@H]1Oc2c(O)ccc4c2[C@@]12CCN(CC1CC1)[C@H](C4)[C@]2(O)C3)C(=O)O [Compound 3, hydrochloride]", "Classification": "false"}

----------
As shown below, each of these compounds has a reported IC50 Selectivity Ratio δ/κ value.
Measured On: δ opioid receptors (Mus musculus)
Sequence (P32300 whole entry): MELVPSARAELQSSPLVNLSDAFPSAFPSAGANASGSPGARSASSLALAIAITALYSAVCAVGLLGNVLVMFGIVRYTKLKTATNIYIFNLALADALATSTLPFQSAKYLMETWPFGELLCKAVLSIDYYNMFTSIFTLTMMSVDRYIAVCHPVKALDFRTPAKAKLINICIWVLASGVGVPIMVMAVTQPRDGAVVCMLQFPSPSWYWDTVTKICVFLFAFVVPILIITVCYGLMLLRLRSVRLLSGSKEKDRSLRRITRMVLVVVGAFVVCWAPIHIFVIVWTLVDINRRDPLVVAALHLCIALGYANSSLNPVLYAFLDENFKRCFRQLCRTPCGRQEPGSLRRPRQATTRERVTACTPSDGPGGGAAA
Method: Antagonism of DADLE (δ) in electrically stimulated mouse vas deferens (MVD) preparation
Condition Context: MVD DADLE IC50 ratio / GPI EK IC50 ratio
Counter-ions that a name gives are not always drawn.

{"Compound": "NCCC[C@H](NC(=O)c1cccc2c3c([nH]c12)[C@@H]1Oc2c(O)ccc4c2[C@@]12CCN(CC1CC1)[C@H](C4)[C@]2(O)C3)C(=O)O [Compound 4, hydrochloride]", "IC50 Selectivity Ratio δ/κ": 63}
{"Compound": "O=C(O)C[C@H](NC(=O)c1cccc2c3c([nH]c12)[C@@H]1Oc2c(O)ccc4c2[C@@]12CCN(CC1CC1)[C@H](C4)[C@]2(O)C3)C(=O)O [Compound 3, hydrochloride]", "IC50 Selectivity Ratio δ/κ": 43}
{"Compound": "N=C(N)NCCC[C@H](NC(=O)c1cccc2c3c([nH]c12)[C@@H]1Oc2c(O)ccc4c2[C@@]12CCN(CC1CC1)[C@H](C4)[C@]2(O)C3)C(=O)O [Compound 5, hydrochloride]", "IC50 Selectivity Ratio δ/κ": 27}
{"Compound": "NCCCC[C@H](NC(=O)c1cccc2c3c([nH]c12)[C@@H]1Oc2c(O)ccc4c2[C@@]12CCN(CC1CC1)[C@H](C4)[C@]2(O)C3)C(=O)O [Compound 6, hydrochloride]", "IC50 Selectivity Ratio δ/κ": 20}
{"Compound": "O=C(O)CNC(=O)c1cccc2c3c([nH]c12)[C@@H]1Oc2c(O)ccc4c2[C@@]12CCN(CC1CC1)[C@H](C4)[C@]2(O)C3 [Compound 2, hydrochloride]", "IC50 Selectivity Ratio δ/κ": 30}

----------
Test system: δ1
Method: biochemical
Type: binding, guinea pig
Condition Context: Ki δ1 / Ki δ2
Where a name gives a salt, the structure may show the parent alone.

{"Molecule": "N=C(N)NCCC[C@H](NC(=O)c1cccc2c3c([nH]c12)[C@@H]1Oc2c(O)ccc4c2[C@@]12CCN(CC1CC1)[C@H](C4)[C@]2(O)C3)C(=O)O [Compound 5, hydrochloride]", "Ki Selectivity Ratio δ1/δ2": 1.9}
{"Molecule": "O=C(O)C[C@H](NC(=O)c1cccc2c3c([nH]c12)[C@@H]1Oc2c(O)ccc4c2[C@@]12CCN(CC1CC1)[C@H](C4)[C@]2(O)C3)C(=O)O [Compound 3, hydrochloride]", "Ki Selectivity Ratio δ1/δ2": 0.3}
{"Molecule": "O=C(O)CNC(=O)c1cccc2c3c([nH]c12)[C@@H]1Oc2c(O)ccc4c2[C@@]12CCN(CC1CC1)[C@H](C4)[C@]2(O)C3 [Compound 2, hydrochloride]", "Ki Selectivity Ratio δ1/δ2": 8.2}
{"Molecule": "O=C(O)c1cccc2c3c([nH]c12)[C@@H]1Oc2c(O)ccc4c2[C@@]12CCN(CC1CC1)[C@H](C4)[C@]2(O)C3 [Compound 7, hydrochloride]", "Ki Selectivity Ratio δ1/δ2": 0.8}
{"Molecule": "NCCC[C@H](NC(=O)c1cccc2c3c([nH]c12)[C@@H]1Oc2c(O)ccc4c2[C@@]12CCN(CC1CC1)[C@H](C4)[C@]2(O)C3)C(=O)O [Compound 4, hydrochloride]", "Ki Selectivity Ratio δ1/δ2": 11.3}
{"Molecule": "NCCCC[C@H](NC(=O)c1cccc2c3c([nH]c12)[C@@H]1Oc2c(O)ccc4c2[C@@]12CCN(CC1CC1)[C@H](C4)[C@]2(O)C3)C(=O)O [Compound 6, hydrochloride]", "Ki Selectivity Ratio δ1/δ2": 0.4}
